# System: NCI-H2342
# protocol-description: relative viability (nuclei count vs DMSO), 5 days (fraction); higher = more cells survive
# setup-conditions: first compound 0.5 µM
Lab note: anything with relative viability below 0.4 is marked YES; values at 0.4 or higher are marked NO.

{"columns": ["molecule", "tested-target", "qualitative-label"],
 "data": [
  ["Nc1ccn([C@@H]2O[C@H](CO)[C@@H](O)[C@@H]2O)c(=O)n1 [Cytarabine] + NC(=O)Nc1cc(-c2cccc(F)c2)sc1C(=O)N[C@H]1CCCNC1 [AZD7762] (partner 0.2 µM)", "NCI-H2342", "YES"],
  ["COc1cc2nccc(Oc3ccc(NC(=O)Nc4cc(C)on4)c(Cl)c3)c2cc1OC [Tivozanib] + O=C(c1cc(Cc2n[nH]c(=O)c3ccccc23)ccc1F)N1CCN(C(=O)C2CC2)CC1 [Olaparib] (partner 8 µM)", "NCI-H2342", "NO"],
  ["Nc1ccn([C@@H]2O[C@H](CO)[C@@H](O)[C@@H]2O)c(=O)n1 [Cytarabine] + CC(=O)c1c(C)c2cnc(Nc3ccc(N4CCNCC4)cn3)nc2n(C2CCCC2)c1=O [Palbociclib] (partner 0.5 µM)", "NCI-H2342", "NO"],
  ["COc1cc2nccc(Oc3ccc(NC(=O)Nc4cc(C)on4)c(Cl)c3)c2cc1OC [Tivozanib] + COc1cc2c(Oc3ccc(NC(=O)C4(C(=O)Nc5ccc(F)cc5)CC4)cc3F)ccnc2cc1OCCCN1CCOCC1 [Foretinib] (partner 0.25 µM)", "NCI-H2342", "NO"],
  ["Nc1ccn([C@@H]2O[C@H](CO)[C@@H](O)[C@@H]2O)c(=O)n1 [Cytarabine] + COc1cccc2cc(-c3nc([C@H]4CC[C@H](C(=O)O)CC4)n4ncnc(N)c34)[nH]c12 [OSI-027] (partner 0.5 µM)", "NCI-H2342", "NO"],
  ["Nc1ccn([C@@H]2O[C@H](CO)[C@@H](O)[C@@H]2O)c(=O)n1 [Cytarabine] + CC(=O)Nc1cccc(-n2c(=O)n(C3CC3)c(=O)c3c(Nc4ccc(I)cc4F)n(C)c(=O)c(C)c32)c1 [Trametinib] (partner 0.02 µM)", "NCI-H2342", "NO"],
  ["Nc1ccn([C@@H]2O[C@H](CO)[C@@H](O)[C@@H]2O)c(=O)n1 [Cytarabine] + Nc1nc2[nH]cc(CCc3ccc(C(=O)N[C@@H](CCC(=O)O)C(=O)O)cc3)c2c(=O)[nH]1 [Pemetrexed] (partner 0.2 µM)", "NCI-H2342", "YES"],
  ["Nc1ccn([C@@H]2O[C@H](CO)[C@@H](O)[C@@H]2O)c(=O)n1 [Cytarabine] + COc1cc2c(Oc3ccc(NC(=O)C4(C(=O)Nc5ccc(F)cc5)CC4)cc3F)ccnc2cc1OCCCN1CCOCC1 [Foretinib] (partner 0.25 µM)", "NCI-H2342", "NO"],
  ["COc1cc2nccc(Oc3ccc(NC(=O)Nc4cc(C)on4)c(Cl)c3)c2cc1OC [Tivozanib] + COc1cccc2cc(-c3nc([C@H]4CC[C@H](C(=O)O)CC4)n4ncnc(N)c34)[nH]c12 [OSI-027] (partner 0.5 µM)", "NCI-H2342", "NO"]
]}

----------
# System: NCI-H1437
# protocol-description: relative viability (nuclei count vs DMSO), 5 days (fraction); higher = more cells survive
# setup-conditions: first compound 0.006325 µM
Readings of relative viability for the listed molecules

{"columns": ["molecule", "relative viability"],
 "data": [
  ["CC(=O)O[C@@]12CO[C@@H]1C[C@H](O)[C@@]1(C)C(=O)[C@H](O)C3=C(C)[C@@H](OC(=O)[C@H](O)[C@@H](NC(=O)OC(C)(C)C)c4ccccc4)C[C@@](O)([C@@H](OC(=O)c4ccccc4)[C@H]21)C3(C)C [Docetaxel] + Cc1cc(Nc2cc(N3CCN(C)CC3)nc(Sc3ccc(NC(=O)C4CC4)cc3)n2)n[nH]1 [Tozasertib] (partner 0.1 µM)", 0.273],
  ["CC(=O)O[C@@]12CO[C@@H]1C[C@H](O)[C@@]1(C)C(=O)[C@H](O)C3=C(C)[C@@H](OC(=O)[C@H](O)[C@@H](NC(=O)OC(C)(C)C)c4ccccc4)C[C@@](O)([C@@H](OC(=O)c4ccccc4)[C@H]21)C3(C)C [Docetaxel] + COc1cccc2cc(-c3nc([C@H]4CC[C@H](C(=O)O)CC4)n4ncnc(N)c34)[nH]c12 [OSI-027] (partner 0.5 µM)", 0.162],
  ["CC(=O)O[C@@]12CO[C@@H]1C[C@H](O)[C@@]1(C)C(=O)[C@H](O)C3=C(C)[C@@H](OC(=O)[C@H](O)[C@@H](NC(=O)OC(C)(C)C)c4ccccc4)C[C@@](O)([C@@H](OC(=O)c4ccccc4)[C@H]21)C3(C)C [Docetaxel] + Nc1ncn([C@H]2C[C@H](O)[C@@H](CO)O2)c(=O)n1 [Decitabine] (partner 2 µM)", 0.307]
]}

----------
Readings of relative viability for the listed compounds
# System: NCI-H1648
# protocol-description: relative viability (nuclei count vs DMSO), 5 days (fraction); higher = more cells survive
# setup-conditions: first compound 2.53 µM

{"columns": ["compound", "tested-target", "relative viability"],
 "data": [
  ["O=c1[nH]c2ccccc2n1C1CCN(CCCC(c2ccc(F)cc2)c2ccc(F)cc2)CC1 [Pimozide] + Nc1ncn([C@H]2C[C@H](O)[C@@H](CO)O2)c(=O)n1 [Decitabine] (partner 2 µM)", "NCI-H1648", 0.55],
  ["Cc1cnc(-c2cnc(NCCNc3ccc(C#N)cn3)nc2-c2ccc(Cl)cc2Cl)[nH]1 + CC(=O)Nc1cccc(-n2c(=O)n(C3CC3)c(=O)c3c(Nc4ccc(I)cc4F)n(C)c(=O)c(C)c32)c1 [Trametinib] (partner 0.02 µM)", "NCI-H1648", 0.456],
  ["Cc1cnc(-c2cnc(NCCNc3ccc(C#N)cn3)nc2-c2ccc(Cl)cc2Cl)[nH]1 + O=C(c1cc(Cc2n[nH]c(=O)c3ccccc23)ccc1F)N1CCN(C(=O)C2CC2)CC1 [Olaparib] (partner 8 µM)", "NCI-H1648", 0.865],
  ["O=c1[nH]c2ccccc2n1C1CCN(CCCC(c2ccc(F)cc2)c2ccc(F)cc2)CC1 [Pimozide] + Nc1nc2[nH]cc(CCc3ccc(C(=O)N[C@@H](CCC(=O)O)C(=O)O)cc3)c2c(=O)[nH]1 [Pemetrexed] (partner 0.2 µM)", "NCI-H1648", 0.673]
]}

----------
# System: LU99A
# protocol-description: relative viability (nuclei count vs DMSO), 5 days (fraction); higher = more cells survive
# setup-conditions: first compound 0.08 µM
Readings of relative viability for the listed compounds

{"columns": ["compound", "relative viability"],
 "data": [
  ["O=c1[nH]c2ccccc2n1C1CCN(CCCC(c2ccc(F)cc2)c2ccc(F)cc2)CC1 [Pimozide] + CCNC(=O)c1noc(-c2cc(C(C)C)c(O)cc2O)c1-c1ccc(CN2CCOCC2)cc1 [Luminespib] (partner 0.01 µM)", 0.242],
  ["O=c1[nH]c2ccccc2n1C1CCN(CCCC(c2ccc(F)cc2)c2ccc(F)cc2)CC1 [Pimozide] + CS(=O)(=O)N1CCN(Cc2cc3nc(-c4cccc5[nH]ncc45)nc(N4CCOCC4)c3s2)CC1 [Pictilisib] (partner 1 µM)", 0.344],
  ["O=c1[nH]c2ccccc2n1C1CCN(CCCC(c2ccc(F)cc2)c2ccc(F)cc2)CC1 [Pimozide] + CC(=O)c1c(C)c2cnc(Nc3ccc(N4CCNCC4)cn3)nc2n(C2CCCC2)c1=O [Palbociclib] (partner 0.5 µM)", 0.407],
  ["O=c1[nH]c2ccccc2n1C1CCN(CCCC(c2ccc(F)cc2)c2ccc(F)cc2)CC1 [Pimozide] + Cc1nc(Nc2ncc(C(=O)Nc3c(C)cccc3Cl)s2)cc(N2CCN(CCO)CC2)n1 [Dasatinib] (partner 0.075 µM)", 0.539],
  ["O=c1[nH]c2ccccc2n1C1CCN(CCCC(c2ccc(F)cc2)c2ccc(F)cc2)CC1 [Pimozide] + O=C(c1cc(Cc2n[nH]c(=O)c3ccccc23)ccc1F)N1CCN(C(=O)C2CC2)CC1 [Olaparib] (partner 8 µM)", 0.251]
]}

----------
Readings of relative viability for the listed compounds
# Tested on: LOU-NH91
# protocol-description: relative viability (nuclei count vs DMSO), 5 days (fraction); higher = more cells survive
# setup-conditions: first compound 0.01581 µM

{"columns": ["compound", "relative viability"],
 "data": [
  ["COc1cc2nccc(Oc3ccc(NC(=O)Nc4cc(C)on4)c(Cl)c3)c2cc1OC [Tivozanib] + C[C@]1(O)C[C@@H](c2nc(-c3ccc4ccc(-c5ccccc5)nc4c3)c3c(N)nccn32)C1 [Linsitinib] (partner 1 µM)", 0.941],
  ["Nc1ccn([C@@H]2O[C@H](CO)[C@@H](O)[C@@H]2O)c(=O)n1 [Cytarabine] + C[C@]1(O)C[C@@H](c2nc(-c3ccc4ccc(-c5ccccc5)nc4c3)c3c(N)nccn32)C1 [Linsitinib] (partner 1 µM)", 0.904],
  ["Nc1ccn([C@@H]2O[C@H](CO)[C@@H](O)[C@@H]2O)c(=O)n1 [Cytarabine] + Cc1cc(Nc2cc(N3CCN(C)CC3)nc(Sc3ccc(NC(=O)C4CC4)cc3)n2)n[nH]1 [Tozasertib] (partner 0.1 µM)", 0.53],
  ["Nc1ccn([C@@H]2O[C@H](CO)[C@@H](O)[C@@H]2O)c(=O)n1 [Cytarabine] + CC(C)C[C@H](NC(=O)[C@H](Cc1ccccc1)NC(=O)c1cnccn1)B(O)O [Bortezomib] (partner 0.002 µM)", 0.47],
  ["Nc1ccn([C@@H]2O[C@H](CO)[C@@H](O)[C@@H]2O)c(=O)n1 [Cytarabine] + CCNC(=O)c1noc(-c2cc(C(C)C)c(O)cc2O)c1-c1ccc(CN2CCOCC2)cc1 [Luminespib] (partner 0.01 µM)", 0.361],
  ["Nc1ccn([C@@H]2O[C@H](CO)[C@@H](O)[C@@H]2O)c(=O)n1 [Cytarabine] + COc1cc2c(Oc3ccc(NC(=O)C4(C(=O)Nc5ccc(F)cc5)CC4)cc3F)ccnc2cc1OCCCN1CCOCC1 [Foretinib] (partner 0.25 µM)", 0.926],
  ["Nc1ccn([C@@H]2O[C@H](CO)[C@@H](O)[C@@H]2O)c(=O)n1 [Cytarabine] + CC(=O)c1c(C)c2cnc(Nc3ccc(N4CCNCC4)cn3)nc2n(C2CCCC2)c1=O [Palbociclib] (partner 0.5 µM)", 0.54],
  ["Nc1ccn([C@@H]2O[C@H](CO)[C@@H](O)[C@@H]2O)c(=O)n1 [Cytarabine] + Cc1nc(Nc2ncc(C(=O)Nc3c(C)cccc3Cl)s2)cc(N2CCN(CCO)CC2)n1 [Dasatinib] (partner 0.075 µM)", 0.555],
  ["Nc1ccn([C@@H]2O[C@H](CO)[C@@H](O)[C@@H]2O)c(=O)n1 [Cytarabine] + Cc1nc(NC(=O)N2CCC[C@H]2C(N)=O)sc1-c1ccnc(C(C)(C)C(F)(F)F)c1 [Alpelisib] (partner 2 µM)", 0.695]
]}
